test: Thermogravimetric analysis (thermal stability)
Property: TTGonset, the onset of the thermal degradation; scope: individual molecules
EXPERIMENTAL ENDPOINT: TTGonset, the onset of the thermal degradation (°C)

MOLECULE	MEASURED RESULT
COc1ccc2cc([C@H](C)C(=O)O)ccc2c1.CSCC[C@H](N)C(=O)OC(C)C [[L-MetOiPr][NAP], L-methionine isopropyl ester naproxenate]	149.6
CC(C)OC(=O)[C@@H](N)[C@@H](C)O.COc1ccc2cc([C@H](C)C(=O)O)ccc2c1 [[L-ThrOiPr][NAP], L-threonine isopropyl ester naproxenate]	145.8
CC(C)Cc1ccc(C(C)C(=O)O)cc1 (racemic) [IBU, (R,S)-ibuprofen, reference compound]	186.2
O=C(O)c1ccccc1O [SA, salicylic acid, reference compound]	146.2
COc1ccc2cc([C@H](C)C(=O)O)ccc2c1 [NAP, S-(+)-naproxen, reference compound]	224.5
CC[C@H](C)[C@H](N)C(=O)OC(C)C.COc1ccc2cc([C@H](C)C(=O)O)ccc2c1 [[L-IleOiPr][NAP], L-isoleucine isopropyl ester naproxenate]	127.0

---

system: Staphylococcus epidermidis; test: Disc diffusion antimicrobial susceptibility test, Staphylococcus epidermidis; type: cell-based; settings: Staphylococcus epidermidis, 24 h; solution transferred to disc 800 mg cm^−3; read-out: Inhibition diameter
EXPERIMENTAL ENDPOINT: zone of inhibition at 800000 µg/mL (mm)

In [3]: df
Out[3]:
                                   compound               experimental_endpoint  measured_result
0  O=C(O)c1ccccc1O [SA, salicylic acid, reference compound]  zone of inhibition at 800000 µg/mL              8.6
1  CC(C)OC(=O)C(N)C(C)C.O=C(O)c1ccccc1O [[L-ValOiPr][SA]]  zone of inhibition at 800000 µg/mL              8.4
2  CC[C@H](C)[C@H](N)C(=O)OC(C)C.O=C(O)c1ccccc1O [[L-IleOiPr][SA], L-isoleucine isopropyl ester salicylate]  zone of inhibition at 800000 µg/mL             10.5
3  CC(C)Cc1ccc(C(C)C(=O)O)cc1 (racemic) [IBU, (R,S)-ibuprofen, reference compound]  zone of inhibition at 800000 µg/mL             18.6
4  CSCC[C@H](N)C(=O)OC(C)C.O=C(O)c1ccccc1O [[L-MetOiPr][SA], L-methionine isopropyl ester salicylate]  zone of inhibition at 800000 µg/mL              9.2

---

test system: Escherichia coli; test: Disc diffusion antimicrobial susceptibility test, Escherichia coli; type: cell-based; conditions: solution transferred to disc 200 mg cm^−3

COMPOUND	TESTED SYSTEM	Inhibition diameter
COc1ccc2cc([C@H](C)C(=O)O)ccc2c1.CSCC[C@H](N)C(=O)OC(C)C [[L-MetOiPr][NAP], L-methionine isopropyl ester naproxenate]	Escherichia coli	6.4 ± 0.3 mm
CC(C)Cc1ccc(C(C)C(=O)O)cc1 (racemic) [IBU, (R,S)-ibuprofen, reference compound]	Escherichia coli	-
CC(C)OC(=O)[C@@H](N)C(C)C.COc1ccc2cc([C@H](C)C(=O)O)ccc2c1 [[L-ValOiPr][NAP]]	Escherichia coli	-
CC(C(=O)O)c1cccc(C(=O)c2ccccc2)c1.CC(C)OC(=O)C(N)C(C)C (mixture of isomers) [[L-ValOiPr][KETO]]	Escherichia coli	6.7 ± 0.3 mm
CC(C(=O)O)c1cccc(C(=O)c2ccccc2)c1.CC[C@H](C)[C@H](N)C(=O)OC(C)C [[L-IleOiPr][KETO]]	Escherichia coli	-
CC(C)Cc1ccc(C(C)C(=O)O)cc1.CCC(C)C(N)C(=O)OC(C)C (mixture of isomers) [[L-IleOiPr][IBU]]	Escherichia coli	6.3 ± 0.1 mm
CC(C(=O)O)c1cccc(C(=O)c2ccccc2)c1.CC(C)OC(=O)C(N)C(C)O (mixture of isomers) [[L-ThrOiPr][KETO]]	Escherichia coli	-
CC(C(=O)O)c1cccc(C(=O)c2ccccc2)c1 (racemic) [KETO, (R,S)-ketoprofen, reference compound]	Escherichia coli	-
CC(C)Cc1ccc(C(C)C(=O)O)cc1.CSCCC(N)C(=O)OC(C)C (mixture of isomers) [[L-MetOiPr][IBU]]	Escherichia coli	6.5 ± 0.2 mm
CC(C)OC(=O)[C@@H](N)[C@@H](C)O.COc1ccc2cc([C@H](C)C(=O)O)ccc2c1 [[L-ThrOiPr][NAP], L-threonine isopropyl ester naproxenate]	Escherichia coli	-
CC(C(=O)O)c1cccc(C(=O)c2ccccc2)c1.CSCCC(N)C(=O)OC(C)C (mixture of isomers) [[L-MetOiPr][KETO]]	Escherichia coli	8.0 ± 0.6 mm
CC(C)OC(=O)[C@@H](N)[C@@H](C)O.O=C(O)c1ccccc1O [[L-ThrOiPr][SA], L-threonine isopropyl ester salicylate]	Escherichia coli	-
CC[C@H](C)[C@H](N)C(=O)OC(C)C.COc1ccc2cc([C@H](C)C(=O)O)ccc2c1 [[L-IleOiPr][NAP], L-isoleucine isopropyl ester naproxenate]	Escherichia coli	-
CC(C)Cc1ccc(C(C)C(=O)O)cc1.CC(C)OC(=O)[C@@H](N)[C@@H](C)O [[L-ThrOiPr][IBU], L-threonine isopropyl ester ibuprofenate]	Escherichia coli	-
COc1ccc2cc([C@H](C)C(=O)O)ccc2c1 [NAP, S-(+)-naproxen, reference compound]	Escherichia coli	-
CC(C)Cc1ccc(C(C)C(=O)O)cc1.CC(C)OC(=O)C(N)C(C)C (mixture of isomers) [[L-ValOiPr][IBU]]	Escherichia coli	6.2 ± 0.1 mm

---

assay: Solubility in water and phosphate buffers; conditions: pH 7.4, 25 °C; AS = unmodified acid
EXPERIMENTAL ENDPOINT: Solubility in Phosphate Buffer pH = 7.4, as active substance (gAS dm^−3)

In [3]: df
Out[3]:
                                   compound  measured_result
0  CSCC[C@H](N)C(=O)OC(C)C.O=C(O)c1ccccc1O [[L-MetOiPr][SA], L-methionine isopropyl ester salicylate]            7.586
1  CC(C)OC(=O)[C@@H](N)[C@@H](C)O.O=C(O)c1ccccc1O [[L-ThrOiPr][SA], L-threonine isopropyl ester salicylate]           18.777
2  CC[C@H](C)[C@H](N)C(=O)OC(C)C.O=C(O)c1ccccc1O [[L-IleOiPr][SA], L-isoleucine isopropyl ester salicylate]           13.149
3  CC(C)OC(=O)C(N)C(C)C.O=C(O)c1ccccc1O [[L-ValOiPr][SA]]            8.702

---

assay: pKa / pKB by potentiometric acid-base titration and formation constant log(KS); conditions: calculated from pKA of acid and pKB of base
EXPERIMENTAL ENDPOINT: Log(KS) formation constant

COMPOUND	MEASURED RESULT
CC(C)OC(=O)[C@@H](N)[C@@H](C)O.O=C(O)c1ccccc1O [[L-ThrOiPr][SA], L-threonine isopropyl ester salicylate]	7.94
CC(C)OC(=O)C(N)C(C)C.O=C(O)c1ccccc1O [[L-ValOiPr][SA]]	7.03
CC[C@H](C)[C@H](N)C(=O)OC(C)C.COc1ccc2cc([C@H](C)C(=O)O)ccc2c1 [[L-IleOiPr][NAP], L-isoleucine isopropyl ester naproxenate]	6.11
CC(C)Cc1ccc(C(C)C(=O)O)cc1.CC(C)OC(=O)[C@@H](N)[C@@H](C)O [[L-ThrOiPr][IBU], L-threonine isopropyl ester ibuprofenate]	6.47
CSCC[C@H](N)C(=O)OC(C)C.O=C(O)c1ccccc1O [[L-MetOiPr][SA], L-methionine isopropyl ester salicylate]	7.00
CC(C)Cc1ccc(C(C)C(=O)O)cc1.CSCCC(N)C(=O)OC(C)C (mixture of isomers) [[L-MetOiPr][IBU]]	5.53
CC(C)OC(=O)[C@@H](N)C(C)C.COc1ccc2cc([C@H](C)C(=O)O)ccc2c1 [[L-ValOiPr][NAP]]	5.89
CC(C)Cc1ccc(C(C)C(=O)O)cc1.CCC(C)C(N)C(=O)OC(C)C (mixture of isomers) [[L-IleOiPr][IBU]]	5.78
CC(C)Cc1ccc(C(C)C(=O)O)cc1.CC(C)OC(=O)C(N)C(C)C (mixture of isomers) [[L-ValOiPr][IBU]]	5.56
CC[C@H](C)[C@H](N)C(=O)OC(C)C.O=C(O)c1ccccc1O [[L-IleOiPr][SA], L-isoleucine isopropyl ester salicylate]	7.25

---

test system: Micrococcus Luteus; experiment: Disc diffusion antimicrobial susceptibility test, Micrococcus luteus; type: cell-based; conditions: Micrococcus luteus, 24 h; solution transferred to disc 25 mg cm^−3; read-out: Inhibition diameter
EXPERIMENTAL ENDPOINT: zone of inhibition at 25000 µg/mL

>>> df
                                   molecule              experimental_endpoint  measured_result
0  CC(C(=O)O)c1cccc(C(=O)c2ccccc2)c1 (racemic) [KETO, (R,S)-ketoprofen, reference compound]  zone of inhibition at 25000 µg/mL           8.3 mm
1  CC(C)Cc1ccc(C(C)C(=O)O)cc1 (racemic) [IBU, (R,S)-ibuprofen, reference compound]  zone of inhibition at 25000 µg/mL           8.6 mm
2  CC(C)OC(=O)[C@@H](N)[C@@H](C)O.O=C(O)c1ccccc1O [[L-ThrOiPr][SA], L-threonine isopropyl ester salicylate]  zone of inhibition at 25000 µg/mL           6.3 mm
3  COc1ccc2cc([C@H](C)C(=O)O)ccc2c1 [NAP, S-(+)-naproxen, reference compound]  zone of inhibition at 25000 µg/mL           6.2 mm
